target_system: Full length DGKζ (in-house protein M1-V929) (Homo sapiens)
Construct: His (N); TEV site (N)
Sequence (Q13574 1-929 isoform Q13574-4): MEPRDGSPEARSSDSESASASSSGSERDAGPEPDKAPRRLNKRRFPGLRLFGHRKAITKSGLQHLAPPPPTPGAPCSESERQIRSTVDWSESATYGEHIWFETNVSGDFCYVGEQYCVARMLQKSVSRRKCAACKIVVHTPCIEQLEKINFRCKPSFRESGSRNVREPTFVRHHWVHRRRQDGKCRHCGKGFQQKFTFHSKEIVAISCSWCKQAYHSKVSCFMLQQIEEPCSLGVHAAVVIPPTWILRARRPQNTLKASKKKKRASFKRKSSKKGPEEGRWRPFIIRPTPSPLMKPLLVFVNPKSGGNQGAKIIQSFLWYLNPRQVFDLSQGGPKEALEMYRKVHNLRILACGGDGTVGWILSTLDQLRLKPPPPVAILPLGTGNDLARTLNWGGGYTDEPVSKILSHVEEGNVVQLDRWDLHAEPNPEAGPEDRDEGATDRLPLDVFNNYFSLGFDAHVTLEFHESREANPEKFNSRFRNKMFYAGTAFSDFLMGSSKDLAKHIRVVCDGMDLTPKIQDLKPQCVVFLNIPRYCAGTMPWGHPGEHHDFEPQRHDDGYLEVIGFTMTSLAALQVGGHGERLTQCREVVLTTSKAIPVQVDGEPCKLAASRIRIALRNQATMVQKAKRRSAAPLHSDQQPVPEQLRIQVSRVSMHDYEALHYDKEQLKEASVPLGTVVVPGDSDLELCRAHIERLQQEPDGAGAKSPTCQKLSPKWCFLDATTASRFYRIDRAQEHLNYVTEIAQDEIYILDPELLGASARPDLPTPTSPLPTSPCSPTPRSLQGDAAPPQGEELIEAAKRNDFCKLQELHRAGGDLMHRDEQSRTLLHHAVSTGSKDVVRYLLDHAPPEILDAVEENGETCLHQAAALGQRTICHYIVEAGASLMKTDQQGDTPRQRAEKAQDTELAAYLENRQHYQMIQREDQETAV
procedure_details: Biochemical DGK IC50 assay (ADP-Glo, lipid micelle substrate), DGKζ
condition_parameters: 1 hour preincubation, 1 hour reaction, room temperature
pIC50: −log10 of the molar value.
quantity_measured: pIC50

{"compound": "CC(c1cc(F)c2c(c1)OC(C)(C)CO2)N1C[C@H](C)N(c2nc(=O)n(C)c3c2nc(CC#N)n3C)C[C@H]1C (mixture of isomers) [Compound A68]", "result_number": 8.15}
{"compound": "CCn1c(CC#N)nc2c(N3C[C@@H](C)N(C(C)c4c(F)cc5c(c4F)OC(C)(C)O5)C[C@@H]3C)nc(=O)n(C)c21 (single isomer, unassigned) [Compound A176b]", "result_number": 8.15}
{"compound": "CC(c1cc(F)c2c(n1)OC(C)(C)CO2)N1C[C@H](C)N(c2nc(=O)n(C)c3c2nc(CC#N)n3C)C[C@H]1C (some centres unmarked) [Compound A164]", "result_number": 7.51}
{"compound": "CCn1c(CC#N)nc2c(N3C[C@@H](C)N(C(C)c4cccc(C(C)C)c4)C[C@@H]3C)nc(=O)n(C)c21 (single isomer, unassigned) [Compound A108a]", "result_number": 8.15}
{"compound": "CCn1c(CC#N)nc2c(N3C[C@@H](C)N(C(C)c4nc5c(cc4F)OCC(C)(C)O5)C[C@@H]3C)nc(=O)n(C)c21 (mixture of isomers) [Compound A161]", "result_number": 7.09}
{"compound": "CCn1c(CC#N)nc2c(N3C[C@@H](C)N(C(C)c4ccc5c(c4)C(C)(C)CO5)C[C@@H]3C)nc(=O)n(C)c21 (some centres unmarked) [Compound A183]", "result_number": 8.40}
{"compound": "CCn1c(CC#N)nc2c(N3C[C@@H](C)N(C(C)c4ccc5c(c4F)OC(C)(C)O5)C[C@@H]3C)nc(=O)n(C)c21 (single isomer, unassigned) [Compound A175a]", "result_number": 6.54}
{"compound": "CCn1c(CC#N)nc2c(N3C[C@@H](C)N(C(C)c4nc5c(cc4F)OCC(C)(C)O5)C[C@@H]3C)nc(=O)n(C)c21 (single isomer, unassigned) [Compound A161b]", "result_number": 5.58}
{"compound": "CCn1c(CC#N)nc2c(N3C[C@@H](C)N(C(=O)c4ccc5c(n4)C(C)(C)CO5)C[C@@H]3C)nc(=O)n(C)c21 [Compound A182]", "result_number": 6.30}

[I] Cc1cccc(C(C)N2C[C@H](C)N(c3c(F)c(=O)n(C)c4c3nc(CC#N)n4C)C[C@H]2C)c1C(F)(F)F (single isomer, unassigned) [Compound A17a]
[II] CCn1c(CC#N)nc2c(N3C[C@@H](C)N(C(C)c4cccc(N5CCOCC5)c4)C[C@@H]3C)nc(=O)n(C)c21 (some centres unmarked) [Compound A141]
In: Which value of pIC50 is numerically greater: that of I or that of II ? Refer to your chosen entry by its label in the reply.
Out: I

* * *

target_system: Full length DGKζ (in-house protein M1-V929) (Homo sapiens)
Construct: His (N); TEV site (N)
procedure_details: Biochemical DGK IC50 assay (ADP-Glo, lipid micelle substrate), DGKζ
condition_parameters: 1 hour preincubation, 1 hour reaction, room temperature
quantity_measured: IC50 (nM)

[I] CC[C@H]1CN(C(C)c2ccc3c(c2)OC(C)(C)CO3)[C@H](CC)CN1c1nc(=O)n(C)c2c1nc(CC#N)n2CC (stereo partly drawn) [Compound A67]
[II] CC(c1ccc2c(c1)OC(C)(C)CO2)N1C[C@H](C)N(c2nc(=O)n(C)c3c2nc(CC#N)n3C2CC2)C[C@H]1C (stereo partly drawn) [Compound A86]
[III] CCn1c(CC#N)nc2c(N3C[C@@H](C)N(C(C)c4cccc(C(F)(F)F)c4)C[C@@H]3C)nc(=O)n(C)c21 (mixture of isomers) [Compound A42]
In: Order the records so the highest IC50 appears first and the lowest last. Ranked list of labels, please, in the requested order.
Out: II, III, I

From: patent US20260125378A2
